Assay: inhibitors of Clostridioides difficile proliferation – 4-point retest, confirmation (AID 1224921);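 also: plate controls were DMSO wells for no effect and levofloxacin 16 µg/mL wells for full effect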
Details: Clostridioides difficile clinical isolate growth, OD600, 24 h, hits give low values; at 30 µM unless noted
Out of some 1,400 compounds screened, about 350 (25%) were called active. Not shown: some 2% with an inconclusive outcome. A selection follows. Results with a measured potency or affinity are listed apart.
I'd appreciate it if you could supply max activity values for the items below.

Solved entries:
C[C@H]1CN([C@@H](C)CO)S(=O)(=O)c2ccc(C#CC3(O)CCCC3)cc2O[C@H]1CN(C)C(=O)Nc1ccc(F)cc1: 15.4% [at 8 µM] (inactive)
COc1cccc(-c2ccc3c(c2)O[C@@H](CN(C)Cc2ccncc2)[C@H](C)CN([C@H](C)CO)S3(=O)=O)c1: 19.2% (inactive)
CO[C@H]1CN(C)C(=O)c2ccc(NC(C)=O)cc2OC[C@H](C)N(C(=O)c2ccccc2F)C[C@@H]1C: -11.1% [at 0.5 µM] (inactive)
CO[C@H]1CN(C)C(=O)c2cc(NS(=O)(=O)c3ccc(Cl)cc3)ccc2OC[C@@H](C)N(C(=O)NC(C)C)C[C@@H]1C: 11.8% (inactive)
C/C=C/[C@@H](CCn1cc(CCO)nn1)[Si](C)(C)c1ccc(OC)cc1: -14.8% [at 0.5 µM] (inactive)
C[C@@H](NC(=O)C[C@H]1C=C[C@@H](NC(=O)CN2CCOCC2)[C@H](CO)O1)c1ccccc1: -14.1% [at 8 µM] (inactive)

Items follow; give max activity for each.
1. O=C(C[C@@H]1C[C@@H]2c3cc(NC(=O)Nc4ccc(C(F)(F)F)cc4)ccc3O[C@@H]2[C@H](CO)O1)NCc1ccc2c(c1)OCO2
2. O=C(C[C@@H]1C[C@@H]2c3cc(NC(=O)C4CCC4)ccc3O[C@@H]2[C@H](CO)O1)NCc1cc(F)ccc1F
3. CO[C@H]1CN(C)C(=O)c2ccc(NC(=O)c3ccc(F)cc3)cc2OC[C@@H](C)N(C(=O)CN(C)C)C[C@@H]1C

["9.21% [at 1.95 µM] (inactive)", "4.63% (inactive)", "-6.76% [at 0.5 µM] (inactive)"]

---

Assay: inhibitors of Clostridioides difficile proliferation – 4-point retest, confirmation (AID 1224921)
Conditions: Clostridioides difficile clinical isolate growth, OD600, 24 h, hits give low values; at 30 µM unless noted
The campaign covered roughly 1,400 compounds. About 350 (25%) were called active. Roughly 2% stayed inconclusive and do not appear here. These entries were drawn from the full list. Potency and affinity values are given separately.
VALUE_TYPE: max activity

Solved entries:
COc1ccc(-c2ccc3c(c2)O[C@H](CN(C)Cc2cccnc2)[C@@H](C)CN([C@H](C)CO)S3(=O)=O)cc1: 25.8% (inactive)
O=C(C[C@H]1C[C@H]2c3cc(NC(=O)Nc4ccc(C(F)(F)F)cc4)ccc3O[C@H]2[C@@H](CO)O1)NCc1ccc(Cl)cc1: -6.14% [at 7.5 µM] (inactive)
CCS(=O)(=O)Nc1ccc2c(c1)C(=O)N(C)C[C@@H](OC)[C@H](C)CN(CC1CCCC1)[C@H](C)CO2: -10.9% [at 1.95 µM] (inactive)
CO[C@@H]1CN(C)C(=O)c2cc(NC(=O)c3ccc(-c4ccccc4)cc3)ccc2OC[C@H](C)NC[C@H]1C: 10.1% [at 1.95 µM] (inactive)
C[C@H](CO)N1C[C@H](C)[C@H](CN(C)C(=O)c2cccc(F)c2)Oc2ncc(C3=CCCCC3)cc2C1=O: -6.68% [at 8 µM] (inactive)
CCN1C[C@@H](C)[C@H](OC)CN(C)C(=O)c2cc(NC(=O)NC(C)C)ccc2OC[C@H]1C: 16.9% (inactive)

Items follow; give max activity for each.
1. COc1ccc(-c2ccc([C@@H]3[C@H](C#N)N(C(=O)C4CCCC4)[C@H]3CO)cc2)cc1
2. O=C(C[C@H]1CC[C@H]2[C@@H](COC[C@H](O)CN2S(=O)(=O)c2ccccc2)O1)NCc1ccc(-c2ccccc2)cc1
3. CO[C@H]1O[C@H](CO)[C@@H](OC(=O)Nc2ccccc2)[C@H](OC(=O)Nc2ccc3c(c2)OCO3)[C@H]1OC(=O)Nc1ccc2c(c1)OCO2

1: -7.24% [at 1.95 µM] (inactive); 2: 41.2% (inactive); 3: -7.27% [at 1.95 µM] (inactive)

---

Test: inhibitors of Clostridioides difficile proliferation – 4-point retest, confirmation (AID 1224921);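 also: plate controls were DMSO wells for no effect and levofloxacin 16 µg/mL wells for full effect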
Settings: Clostridioides difficile clinical isolate growth, OD600, 24 h, hits give low values; at 30 µM unless noted
The whole screen tested about 1,400 compounds, of which about 350 (25%) were called active. Not shown: some 2% with an inconclusive outcome. These entries were drawn from the full list. Potency and affinity values are given separately.
I'd appreciate it if you could supply max activity values for the items below.

Solved entries:
CCCNC(=O)N1C[C@H](C)[C@H](OC)CN(C)C(=O)c2cc(NC(C)=O)ccc2OC[C@H]1C: 4.83% [at 8 µM] (inactive)
O=C(C[C@H]1C[C@@H]2c3cc(NC(=O)Nc4ccc(F)cc4)ccc3O[C@@H]2[C@H](CO)O1)NC1CCCCC1: 16% (inactive)
C[C@H](O)C#Cc1ccc2c(c1)O[C@H](CN(C)CC1CCCCC1)[C@H](C)CN([C@H](C)CO)S2(=O)=O: 20.7% (inactive)
CCC(=O)N1C[C@@H](C)[C@H](OC)CN(C)C(=O)c2ccc(NC(=O)c3cc(C)on3)cc2OC[C@@H]1C: -1.88% [at 1.95 µM] (inactive)
C[C@@H]1CN([C@@H](C)CO)C(=O)c2ccccc2-c2ccccc2CO[C@H]1CN(C)S(=O)(=O)c1ccsc1: 36% (inactive)

Items follow; give max activity for each.
1. COc1ccccc1S(=O)(=O)N[C@H]1C=C[C@@H](CC(=O)N2CCCCC2)O[C@@H]1CO
2. CN1C(=O)c2cc(NC(=O)Cc3ccccc3)ccc2OC[C@H]2O[C@@H](CC(=O)NCC3CC3)CC[C@H]21

1: -9.97% [at 8 µM] (inactive); 2: -7.83% (inactive)

---

Experiment: inhibitors of Clostridioides difficile proliferation – 4-point retest, confirmation (AID 1224921);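 also: plate controls were DMSO wells for no effect and levofloxacin 16 µg/mL wells for full effect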
Settings: Clostridioides difficile clinical isolate growth, OD600, 24 h, hits give low values; at 30 µM unless noted
Screen size: about 1,400 compounds; about 350 (25%) were called active. Not shown: some 2% with an inconclusive outcome. A selection follows. Measured potencies and affinities stand elsewhere.
VALUE_TYPE: max activity

CO[C@H]1CN(C)C(=O)c2ccc(NC(=O)C3CC3)cc2OC[C@@H](C)N(Cc2cncnc2)C[C@@H]1C: -5.55% (inactive)

Items follow; give max activity for each.
1. CCCNC(=O)Nc1ccc2c(c1)C(=O)N(C)C[C@H](OC)[C@@H](C)CN(C)[C@@H](C)CO2
2. C[C@@H]1CN([C@@H](C)CO)C(=O)Cc2cc(NC(=O)Nc3cccc4ccccc34)ccc2O[C@H]1CN(C)Cc1ccccc1
3. CC(C)NC(=O)Nc1ccc2c(c1)CC(=O)N([C@@H](C)CO)C[C@@H](C)[C@@H](CN(C)Cc1ccc(-c3ccccc3)cc1)O2
4. COc1ccc(NC(=O)N[C@@H]2C=C[C@H](CC(=O)NC3CCCCC3)O[C@@H]2CO)cc1
5. CO[C@@H]1CN(C)C(=O)c2cc(NC(C)=O)ccc2OC[C@H](C)N(Cc2nccs2)C[C@@H]1C

1: 4.84% [at 8 µM] (inactive); 2: 34.5% (inactive); 3: 42.2% (inactive); 4: 13.1% [at 1.95 µM] (inactive); 5: 24.6% (inactive)

Consider the molecule `COc1ccccc1S(=O)(=O)N(C)C[C@H]1Oc2cc(C#CCC(C)C)ccc2S(=O)(=O)N([C@@H](C)CO)C[C@@H]1C` and give its recorded max activity.
10.5% (inactive)

---

I'd appreciate it if you could supply max activity values for the items below.
Assay: inhibitors of Clostridioides difficile proliferation – 4-point retest, confirmation (AID 1224921);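 also: plate controls were DMSO wells for no effect and levofloxacin 16 µg/mL wells for full effect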
Conditions: Clostridioides difficile clinical isolate growth, OD600, 24 h, hits give low values; at 30 µM unless noted
The whole screen tested about 1,400 compounds, of which about 350 (25%) were called active. Another 2% or so got no clear call; they are omitted. Only a sample is shown. Entries with a potency or affinity are not part of this list.

Solved entries:
CCCC(=O)Nc1ccc2c(c1)OC[C@@H](C)N(Cc1ccncc1)C[C@H](C)[C@H](OC)CN(C)C2=O: 14.1% (inactive)
CO[C@@H]1CN(C)C(=O)c2ccc(NC(=O)C3CCC3)cc2OC[C@H](C)N(C(=O)CN(C)C)C[C@@H]1C: -13.6% [at 0.5 µM] (inactive)
CC(=O)N(C)C[C@@H]1Oc2ncc(C#Cc3ccc(F)cc3)cc2C(=O)N([C@@H](C)CO)C[C@@H]1C: 32.1% (inactive)

Now let's try a different one.
Consider the compound `C[C@@H]1CN([C@@H](C)CO)C(=O)Cc2cc(NC(=O)NC3CCCCC3)ccc2O[C@@H]1CN(C)S(=O)(=O)c1ccc(Cl)cc1` and give its recorded max activity.
20.4% (inactive)

Recorded values, source PubChem BioAssay AID1224921.
